Entries and their log10(IC50)
tested on: KB-3-1; assay: Cell survival assay (SRB), KB-3-1; format: cell-based, human; details: Homo sapiens, KB 3-1, KB-3-1 cells (paclitaxel-sensitive parent); read-out: In vitro IC50 (nM) KB-3-1
Scale: decimal log of IC50, IC50 in nM.

Form: compound = CCCCCCCCOC(=O)/C(C)=C/[C@H](C(C)C)N(C)C(=O)[C@@H](NC(=O)[C@@H](NC)C(C)(C)c1ccccc1)C(C)(C)C [Example 116] ; log10(IC50) = 2.18

log10(IC50) reading for CN[C@H](C(=O)N[C@H](C(=O)N[C@H](/C=C(\C)C(=O)O)CC(C)C)C(C)(C)C)C(C)(C)c1ccccc1.O=C(O)C(F)(F)F [Example 93, Trifluoroacetic Acid] : 1.93

Recorded log10(IC50) (compound CN[C@@H](C(=O)N[C@H](C(=O)N(C)[C@H](/C=C(\C)C(=O)O)C(C)C)C(C)(C)C)C(C)(C)c1cccc(C)c1 [Example 9] ): 0.90

The recorded log10(IC50) for CN[C@H](C(=O)N[C@H](C(=O)N(C)[C@H](/C=C(\C)C(=O)O)C(C)C)C(C)(C)C)C(C)(C)c1cc(C)cc(C)c1 [Example 17] is 0.00

# log10(IC50) (compound: CN[C@H](C(=O)N[C@H](C(=O)N(C)[C@H](/C=C/C(=O)O)C(C)C)C(C)(C)C)C(C)(C)c1ccccc1 [Example 118] ) is 2.28

More entries:
The compound listed as CN[C@H](C(=O)N[C@H](C(=O)N(C)[C@H](/C=C(\C)C(=O)O)C(C)C)C(C)(C)C)C(C)(C)c1cccc(C)c1 [Example 8] shows log10(IC50) equal to -0.56

For CN[C@H](C(=O)N[C@H](C(=O)N[C@H](/C=C(\C)C(=O)O)C(C)C)C(C)C)C(C)(C)c1ccccc1.O=C(O)C(F)(F)F [Example 102, Trifluoroacetic Acid] the compound record lists log10(IC50) as 2.57

// sample CN[C@H](C(=O)N[C@H](C(=O)N(C)[C@H](/C=C(\C)C(=O)O)C(C)C)C(C)(C)C)C(C)(C)c1ccc(Br)cc1 [Example 43] , its log10(IC50) was 0.18

Data point: CC/C(=C\[C@H](C(C)C)N(C)C(=O)[C@@H](NC(=O)[C@@H](NC)C(C)(C)c1ccccc1)C(C)(C)C)C(=O)O [Example 78] ; log10(IC50) = 0.73

For this compound ( CN[C@H](C(=O)N[C@H](C(=O)N(C)[C@H](/C=C(\C)C(=O)NCCC#N)C(C)C)C(C)(C)C)C(C)(C)c1ccccc1 [Example 109] ), measured log10(IC50) is 2.11

Measured log10(IC50) of CNC(C(=O)N[C@H](C(=O)N(C)[C@H](/C=C(\C)C(=O)O)C(C)C)C(C)(C)C)C1(c2ccccc2)CC1 (stereo in doubt) [Example 143] : 1.43

Per the records, this compound ( CN[C@H](C(=O)N[C@@H](C(=O)N(C)[C@H](/C=C(\C)C(=O)O)C(C)C)C(C)(C)F)C(C)(C)c1ccccc1 [Example 148] ) has log10(IC50) equal to 1.94

----------
system: KB-3-1; assay: Cell survival assay (SRB), KB-3-1; assay type: cell-based, human; conditions: Homo sapiens, KB 3-1, KB-3-1 cells (paclitaxel-sensitive parent); read-out: In vitro IC50 (nM) KB-3-1
Each record here notes measured IC50.
Give the number first and the unit second.

For the molecule `CN[C@H](C(=O)N[C@H](C(=O)N(C)[C@H](/C=C(\C)C(=O)O)C(C)C)C(C)(C)C)C(C)(C)c1cccc(OC)c1` , the measured IC50 on KB-3-1 was 3.5 nM

Known value: KB-3-1 IC50 of the molecule `CN[C@H](C(=O)N[C@H](C(=O)N(C)[C@H](/C=C(\C)C(=O)OCc1cccs1)C(C)C)C(C)(C)C)C(C)(C)c1ccccc1` equals 5 nM

Bench note, KB-3-1: entry `CN[C@H](C(=O)N[C@H](C(=O)N(C)[C@H](/C=C(\C)C(=O)O)C(C)C)C(C)(C)C)C(C)(C)c1cc(C(F)(F)F)cc(C(F)(F)F)c1` , its IC50 = 17 nM

Given the molecule `CN[C@@H](C(=O)N[C@H](C(=O)N(C)[C@H](/C=C(\C)C(=O)O)C(C)C)C(C)(C)C)C(C)(C)c1ccsc1` and test system KB-3-1, the measured IC50 is 9.5 nM

Recorded IC50 for `CN[C@H](C(=O)N[C@H](C(=O)N(C)[C@H](/C=C(\C)C(=O)O)C(C)C)C(C)(C)C)C(C)(C)c1cccc(Br)c1` on KB-3-1 was 1.8 nM

The molecule `CCOC(=O)/C(C)=C/[C@H](C(C)C)N(C)C(=O)[C@@H](NC(=O)[C@@H](NC)C(C)(C)c1cccc(Cl)c1)C(C)(C)C` , when measured on KB-3-1, yielded IC50 of 562 nM

Entry `CCC(CC)(c1ccccc1)[C@H](NC)C(=O)N[C@H](C(=O)N(C)[C@H](/C=C(\C)C(=O)O)C(C)C)C(C)(C)C` , KB-3-1 data, IC50 value: 8.5 nM

Tested on KB-3-1, the item `CCN(C(=O)[C@@H](NC(=O)[C@@H](NC)C(C)(C)c1ccccc1)C(C)(C)C)[C@H](/C=C(\C)C(=O)O)C(C)C.O=C(O)C(F)(F)F` showed IC50 equal to 109 nM

Tested on KB-3-1: `CN[C@@H](C(=O)N[C@H](C(=O)N(C)[C@H](/C=C(\C)C(=O)O)C(C)C)C(C)(C)C)C(C)(C)c1ccccc1C` . Observed IC50: 6 nM

Summary: `CCOC(=O)/C(C)=C/[C@H](C(C)C)N(C)C(=O)[C@@H](NC(=O)[C@@H](NC)C(C)(C)c1cc2ccccc2s1)C(C)(C)C` , KB-3-1, IC50 = 331 nM

KB-3-1 assay, molecule `CCOC(=O)/C(C)=C/[C@H](C(C)C)N(C)C(=O)[C@@H](NC(=O)[C@H](NC)C(C)(C)c1ccccc1)C(C)(C)C` , recorded IC50 = 909 nM

KB-3-1 assay, molecule CCOC(=O)/C(C)=C/[C@H](C(C)C)N(C)C(=O)[C@@H](NC(=O)[C@@H](NC)C(C)(C)C1CCCCC1)C(C)(C)C [Reference Example 100] , recorded IC50 = 229 nM

----------
system: KB-V1 (MDR1++); assay: Cell survival assay (SRB), KB-V1 (MDR1++)
property.measured: Ratio KBV1/KB
Please reply with the value in numeric form only.

Some molecules with known Ratio KBV1/KB results, for comparison:
GET /values?item= CN[C@H](C(=O)N[C@H](C(=O)N(C)[C@H](/C=C(\C)C(=O)O)C(C)C)C(C)(C)C)C(C)(C)c1ccccc1 [Example 134] &system= KB-V1 (MDR1++) returns Ratio KBV1/KB: 31.3

# value of Ratio KBV1/KB, KB-V1 (MDR1++), item CN[C@@H](C(=O)N[C@H](C(=O)N(C)[C@H](/C=C(\C)C(=O)O)C(C)C)C(C)(C)C)C(C)(C)Cc1ccccc1 [Example 49] = 99.8

So the reported Ratio KBV1/KB for CCOC(=O)/C(C)=C/[C@H](C(C)C)N(C)C(=O)[C@@H](NC(=O)[C@H](NC)C(C)(C)c1cc(C)cc(C)c1)C(C)(C)C [Example 16b] , on KB-V1 (MDR1++), turned out to be 11.7

***
Field Ratio KBV1/KB (system: KB-V1 (MDR1++)) for entry CN[C@@H](C(=O)N[C@H](C(=O)N(C)[C@H](/C=C(\C)C(=O)O)C(C)C)C(C)(C)C)C(C)(C)c1cc(C)cc(C)c1 [Example 18] = 79.9

The observed Ratio KBV1/KB for CN[C@@H](C(=O)N[C@H](C(=O)N(C)[C@H](/C=C(\C)C(=O)O)C(C)C)C(C)(C)C)C(C)(C)c1cccc(C(F)(F)F)c1 [Example 63] when tested with KB-V1 (MDR1++) stands at 69.0

Observed Ratio KBV1/KB, KB-V1 (MDR1++), CN[C@H](C(=O)N[C@H](C(=O)N(C)[C@@H](/C=C(\C)C(=O)O)C(C)C)C(C)(C)C)C(C)(C)c1ccccc1 [Example 157] : 5.0

The reported KB-V1 (MDR1++) Ratio KBV1/KB of CCC(CC)(c1ccccc1)[C@@H](NC)C(=O)N[C@H](C(=O)N(C)[C@H](/C=C(\C)C(=O)O)C(C)C)C(C)(C)C [Example 126] is 63.3

Measured on KB-V1 (MDR1++), CN[C@H](C(=O)N[C@H](C(=O)N(C)[C@H](/C=C(\C)C(=O)O)C(C)C)C(C)(C)C)C(C)(C)c1ccc(Br)cc1 [Example 43] has a documented Ratio KBV1/KB of 69.8

Record for CN[C@H](C(=O)N[C@H](C(=O)N(C)[C@H](/C=C(\C)C(=O)O)C(C)C)C(C)(C)C)C(C)(C)c1cc(C(F)(F)F)cc(C(F)(F)F)c1 [Example 66] under target or system KB-V1 (MDR1++): Ratio KBV1/KB reported as 26.9
